Target: full-length MALT1 protein His-MALT1(1-824) (Homo sapiens, UniProt Q9UDY8)
Construct: full-length MALT1 protein His-MALT1(1-824); His (N); made in house; host or cells: baculovirus-infected insect cells
Test: MALT1 protease assay, Assay 1 (2 nM MALT1, Ac-LRSR-AMC substrate)
Format: biochemical
Settings: 2 nM MALT1, 50 μM Ac-LRSR-AMC, 2 h pre-incubation, 8 hr incubation at RT
In this section, each of the compounds is paired with its reported IC50.

>  <compound>
Cn1cnc(-c2ncc(NC(=O)C3CC(C)(C)c4c3cnc3cc(Cl)nn43)cc2Cl)c1 (single isomer, unassigned)

>  <tested on>
full-length MALT1 protein His-MALT1(1-824) (Homo sapiens, UniProt Q9UDY8)

>  <IC50>
10 to 100 nM

$$$$

Would you mind telling me what IC50 value was observed for Cc1cc2ncc3c(n2n1)C1(CC1)CC3C(=O)Nc1cnc(-n2nccn2)c(Cl)c1 (centres unmarked) ?
100 to 1000 nM

Would you mind telling me what IC50 value was observed for CC1(C)c2c(cnc3cc(Cl)nn23)C(C(=O)Nc2cnc(-n3nccn3)c(Cl)c2)C1O (racemic) ?
100 to 1000 nM

Would you mind telling me what IC50 value was observed for CC1(C)CC(C(=O)Nc2cnc(-n3nccn3)c(Cl)c2)c2cnc3cc(C(F)F)nn3c21 (single isomer, unassigned) ?
10 to 100 nM

Would you mind telling me what IC50 value was observed for CC1(C)CCC(C(=O)Nc2cnc(-n3nccn3)c(Cl)c2)c2cnc3cc(Cl)nn3c21 (single isomer, unassigned) [Example 9] ?
10 to 100 nM

Would you mind telling me what IC50 value was observed for CCc1cc2ncc3c(n2n1)C(C)(C)C[C@H]3C(=O)Nc1cnc(-n2nccn2)c(Cl)c1 (single isomer, unassigned) ?
≥ 1000 nM

Would you mind telling me what IC50 value was observed for CC1(C)C[C@@H](C(=O)Nc2cnc(-n3cc(C#N)cn3)c(Cl)c2)c2cnc3cc(Cl)nn3c21 (single isomer, unassigned) ?
≥ 1000 nM

Would you mind telling me what IC50 value was observed for C[C@@]1(C(F)(F)F)C[C@H](C(=O)Nc2cnc(-n3nccn3)c(Cl)c2)c2cnc3cc(Cl)nn3c21 (single isomer, unassigned) ?
< 10 nM

* * *

Target: full-length MALT1 protein His-MALT1(1-824) (Homo sapiens)
Construct: full-length MALT1 protein His-MALT1(1-824); His (N); made in house; host or cells: baculovirus-infected insect cells
Experiment: MALT1 protease assay, Assay 2 (1 nM MALT1, Ac-LRSR-AMC substrate)
Assay type: biochemical
Conditions: 1 nM MALT1, 50 μM Ac-LRSR-AMC, 2 h pre-incubation, 8 hr incubation at RT
property label: IC50

>  <compound>
O=C(Nc1cnc(-n2nccn2)c(C(F)(F)F)c1)[C@H]1C[C@]2(CCO2)c2c1cnc1cc(Cl)nn21 (racemic)

>  <IC50>
10 to 100 nM

$$$$
>  <compound>
N#Cc1cc(NC(=O)C2CC3(CCOCC3)c3c2cnc2cc(F)nn32)cnc1OC(F)F (single isomer, unassigned)

>  <IC50>
≥ 1000 nM

$$$$

Next compound, please.
Would you mind telling me what IC50 value was observed for Cc1cc(NC(=O)[C@@H]2CC(C)(C)c3c2cnc2cc(Cl)nn32)cnc1-n1nccn1 (single isomer, unassigned) [Example 181] ?
10 to 100 nM

* * *

In this section, each of the compounds is paired with its reported IC50.
Target: full-length MALT1 protein His-MALT1(1-824) (Homo sapiens, UniProt Q9UDY8)
Construct: full-length MALT1 protein His-MALT1(1-824); His (N); made in house; host or cells: baculovirus-infected insect cells
Experiment: MALT1 protease assay, Assay 1 (2 nM MALT1, Ac-LRSR-AMC substrate)
Type: biochemical
Details: 2 nM MALT1, 50 μM Ac-LRSR-AMC, 2 h pre-incubation, 8 hr incubation at RT

Known IC50 results, listed for orientation:
>  <compound>
CC1(C)CC[C@@H](C(=O)Nc2cnc(-n3nccn3)c(Cl)c2)c2cnc3cc(Cl)nn3c21 (single isomer, unassigned)

>  <IC50>
≥ 1000 nM

$$$$
>  <compound>
Cn1nc(-c2ncc(NC(=O)C3CC(C)(C)c4c3cnc3cc(Cl)nn43)cc2Cl)cc1O (stereo not shown)

>  <IC50>
≥ 1000 nM

$$$$
>  <compound>
Cn1ccc(-c2ncc(NC(=O)C3CC(C)(C)c4c3cnc3cc(Cl)nn43)cc2Cl)n1 (single isomer, unassigned)

>  <IC50>
10 to 100 nM

$$$$

Report IC50 for CC1(C)C[C@@H](C(=O)Nc2cnc(-n3nccn3)c(Cl)c2)c2cnc3cc(C(F)F)nn3c21 (single isomer, unassigned) tested on full-length MALT1 protein His-MALT1(1-824) (Homo sapiens, UniProt Q9UDY8).
≥ 1000 nM

Report IC50 for C[C@]1(C(F)(F)F)C[C@@H](C(=O)Nc2cnc(-n3nccn3)c(Cl)c2)c2cnc3cc(Cl)nn3c21 (single isomer, unassigned) tested on full-length MALT1 protein His-MALT1(1-824) (Homo sapiens, UniProt Q9UDY8).
10 to 100 nM

Report IC50 for CC1(C)CC(C(=O)Nc2cnc(-n3ncc(CO)n3)c(Cl)c2)c2cnc3cc(Cl)nn3c21 (single isomer, unassigned) tested on full-length MALT1 protein His-MALT1(1-824) (Homo sapiens, UniProt Q9UDY8).
< 10 nM

Report IC50 for CC1(C)CC(C(=O)Nc2cnc(-n3cccn3)c(Cl)c2)c2cnc3cc(Cl)nn3c21 (single isomer, unassigned) tested on full-length MALT1 protein His-MALT1(1-824) (Homo sapiens, UniProt Q9UDY8).
10 to 100 nM

Report IC50 for CC1(C)C[C@@H](C(=O)Nc2cnc([C@@H]3CCCO3)c(Cl)c2)c2cnc3cc(Cl)nn3c21 (single isomer, unassigned) tested on full-length MALT1 protein His-MALT1(1-824) (Homo sapiens, UniProt Q9UDY8).
≥ 1000 nM

Report IC50 for CC(C)(O)c1cnn(-c2ncc(NC(=O)C3CC(C)(C)c4c3cnc3cc(Cl)nn43)cc2Cl)n1 (single isomer, unassigned) [Example 23] tested on full-length MALT1 protein His-MALT1(1-824) (Homo sapiens, UniProt Q9UDY8).
< 10 nM

Report IC50 for C[C@]1(C(F)(F)F)C[C@H](C(=O)Nc2cnc(-n3nccn3)c(Cl)c2)c2cnc3cc(Cl)nn3c21 (single isomer, unassigned) tested on full-length MALT1 protein His-MALT1(1-824) (Homo sapiens, UniProt Q9UDY8).
< 10 nM

Report IC50 for CC1(C)CC(C(=O)Nc2cnc(-n3nccn3)c(Cl)c2)c2cnc3cc(Cl)nn3c21 (single isomer, unassigned) [Example 2] tested on full-length MALT1 protein His-MALT1(1-824) (Homo sapiens, UniProt Q9UDY8).
< 10 nM

Report IC50 for Cn1ccc(-c2ncc(NC(=O)[C@@H]3CC(C)(C)c4c3cnc3cc(Cl)nn43)cc2Cl)n1 (single isomer, unassigned) tested on full-length MALT1 protein His-MALT1(1-824) (Homo sapiens, UniProt Q9UDY8).
≥ 1000 nM

Report IC50 for Cc1cc2ncc3c(n2n1)C(C)(C)C[C@H]3C(=O)Nc1cnc(-n2nccn2)c(Cl)c1 (single isomer, unassigned) tested on full-length MALT1 protein His-MALT1(1-824) (Homo sapiens, UniProt Q9UDY8).
≥ 1000 nM

* * *

Target: full-length MALT1 protein His-MALT1(1-824) (Homo sapiens, UniProt Q9UDY8)
Construct: full-length MALT1 protein His-MALT1(1-824); His (N); made in house; host or cells: baculovirus-infected insect cells
Sequence (Q9UDY8 1-824): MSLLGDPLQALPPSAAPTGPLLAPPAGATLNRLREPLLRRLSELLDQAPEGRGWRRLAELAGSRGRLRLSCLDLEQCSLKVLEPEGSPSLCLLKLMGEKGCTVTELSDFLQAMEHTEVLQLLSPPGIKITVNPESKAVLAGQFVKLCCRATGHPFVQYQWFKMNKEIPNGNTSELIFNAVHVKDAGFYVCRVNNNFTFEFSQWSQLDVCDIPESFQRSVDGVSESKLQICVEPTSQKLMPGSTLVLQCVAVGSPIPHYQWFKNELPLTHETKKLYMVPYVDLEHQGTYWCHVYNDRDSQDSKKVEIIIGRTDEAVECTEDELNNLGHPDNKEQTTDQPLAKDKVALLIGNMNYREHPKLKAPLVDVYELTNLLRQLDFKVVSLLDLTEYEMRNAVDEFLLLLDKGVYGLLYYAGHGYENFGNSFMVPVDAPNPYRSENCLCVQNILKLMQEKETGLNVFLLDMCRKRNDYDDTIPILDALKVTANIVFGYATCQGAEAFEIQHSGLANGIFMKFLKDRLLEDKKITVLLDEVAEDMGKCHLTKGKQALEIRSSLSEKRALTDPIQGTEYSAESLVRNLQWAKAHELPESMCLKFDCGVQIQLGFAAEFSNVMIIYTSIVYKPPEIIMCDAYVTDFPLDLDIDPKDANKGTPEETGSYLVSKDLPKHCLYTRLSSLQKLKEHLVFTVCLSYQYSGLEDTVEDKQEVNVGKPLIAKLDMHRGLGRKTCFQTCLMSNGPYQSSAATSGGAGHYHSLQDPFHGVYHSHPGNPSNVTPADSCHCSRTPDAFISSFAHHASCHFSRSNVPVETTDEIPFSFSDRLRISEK
Test: MALT1 protease assay, Assay 1 (2 nM MALT1, Ac-LRSR-AMC substrate)
Type: biochemical
Details: 2 nM MALT1, 50 μM Ac-LRSR-AMC, 2 h pre-incubation, 8 hr incubation at RT
property label: IC50

Known IC50 results, listed for orientation:
>  <compound>
CC1(C)CC(C(=O)Nc2cnc(-n3nccn3)c(Cl)c2)c2ccc3cc(O)nn3c21 (stereo not drawn)

>  <tested on>
full-length MALT1 protein His-MALT1(1-824) (Homo sapiens, UniProt Q9UDY8)

>  <value>
100 to 1000 nM

$$$$
>  <compound>
CC1(C)C[C@H](C(=O)Nc2cnc([C@@H]3CCCO3)c(Cl)c2)c2cnc3cc(Cl)nn3c21 (single isomer, unassigned)

>  <tested on>
full-length MALT1 protein His-MALT1(1-824) (Homo sapiens, UniProt Q9UDY8)

>  <value>
100 to 1000 nM

$$$$
>  <compound>
CC1(C)C[C@H](C(=O)Nc2cnc(N3CCCC3)c(Cl)c2)c2cnc3cc(Cl)nn3c21 (single isomer, unassigned)

>  <tested on>
full-length MALT1 protein His-MALT1(1-824) (Homo sapiens, UniProt Q9UDY8)

>  <value>
10 to 100 nM

$$$$
>  <compound>
CC1(C)CC(C(=O)Nc2cnc(-n3nccn3)c(Cl)c2)c2cnc3cc(C#N)nn3c21 (single isomer, unassigned)

>  <tested on>
full-length MALT1 protein His-MALT1(1-824) (Homo sapiens, UniProt Q9UDY8)

>  <value>
10 to 100 nM

$$$$
>  <compound>
CC1(C)C[C@@H](C(=O)Nc2cnc(-n3ncc(CO)n3)c(Cl)c2)c2cnc3cc(Cl)nn3c21 (single isomer, unassigned)

>  <tested on>
full-length MALT1 protein His-MALT1(1-824) (Homo sapiens, UniProt Q9UDY8)

>  <value>
≥ 1000 nM

$$$$

Would you mind telling me what IC50 value was observed for CC1(C)CC(C(=O)Nc2cnc(-n3nccn3)c(Cl)c2)c2cnc3cc(C(F)(F)F)nn3c21 (stereo not drawn) ?
10 to 100 nM
